TARGET: T1, human GIP receptor (human), P48546
T1 chain: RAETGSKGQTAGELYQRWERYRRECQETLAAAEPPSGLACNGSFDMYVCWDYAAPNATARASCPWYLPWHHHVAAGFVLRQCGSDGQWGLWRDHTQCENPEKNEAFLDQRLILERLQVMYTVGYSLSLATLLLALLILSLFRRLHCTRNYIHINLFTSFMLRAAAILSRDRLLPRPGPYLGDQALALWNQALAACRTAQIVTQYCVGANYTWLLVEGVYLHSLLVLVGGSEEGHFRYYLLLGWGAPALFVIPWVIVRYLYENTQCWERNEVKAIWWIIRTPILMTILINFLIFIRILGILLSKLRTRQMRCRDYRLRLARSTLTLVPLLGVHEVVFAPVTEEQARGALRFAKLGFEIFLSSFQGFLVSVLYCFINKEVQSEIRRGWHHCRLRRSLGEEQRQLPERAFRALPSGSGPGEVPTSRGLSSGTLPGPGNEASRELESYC
PROCEDURE_DETAILS: 125I-GIP displacement by 10 nM analog, HEK-GIPR membranes
VALUE_KIND: % Inh at 10 nM (%)
Answer format: numeric, % implied, no suffix.

{"columns": ["BINDER", "% Inh at 10 nM (%)"],
 "data": [
  ["YADGTFISDYSIAMDKIHQQDFVNWLLAQKPKKIRYS (modifications not checked) [0601GIP4390]", 90.3],
  ["YAEGTFISDYSIAMDKIHQQDFVNWLLAQKPKKIRYS (modifications not checked) [0601GIP4233]", 89],
  ["YAEGTFISDYSIAMDKIHQQDFVNWLLAQKPSKEIIS (modifications not checked) [0601GIP4765]", 67],
  ["YAEGTFISDYSIALDKIHQQDFVNWLLAQKPKKIRYS (modifications not checked) [0601GIP4807]", 96.1],
  ["YAEGFISDYSIAMDKIHQQDFVNWLLAQKPSPKKIRYS (modifications not checked) [0601GIP4820]", 46]
]}

Query: For the binder YAEGTFISDYSIAMDKIHQQDFVNWLLAQKPKGKGKS (modifications not checked) [0601GIP4700] , report % Inh at 10 nM.
Response: 86.6

Query: For the binder HGEGTFISDYSIALDKIAQQEFVNWLLAQKPKKIRYS (modifications not checked) [0601GIP4841] , report % Inh at 10 nM.
Response: 56.6

Query: For the binder YAEGTFISDYSIAMDKIHQQDFVNPLLAQKPKKIRYS (modifications not checked) [0601GIP4770] , report % Inh at 10 nM.
Response: 10.8
